Values from paper PMC11445910

test system: FMDV serotype A (NP05); assay: microbe, parasite or virus in culture; format: cell-based; conditions: Foot-and-mouth disease virus, BHK-21, read-out: Post-viral entry EC50
measured parameter: EC50 (nM)
Give the quantity in nM, number only.

Examples from the recorded data:
CC[C@H]1CN2CCc3cc(OC)c(OC)cc3[C@@H]2C[C@@H]1C[C@H]1NCCc2cc(O)c(OC)cc21 [CPL, Cephaeline]    50
CCOC(=O)/C=C/[C@H](C[C@@H]1CCNC1=O)NC(=O)[C@@H](CC(=O)[C@@H](NC(=O)c1cc(C)on1)C(C)C)Cc1ccc(F)cc1 [RPV, Rupintrivir]    3430

Please look up its EC50: CC[C@H]1CN2CCc3cc(OC)c(OC)cc3[C@@H]2C[C@@H]1C[C@H]1NCCc2cc(OC)c(OC)cc21 [EMT, Emetine, reference compound]
240

* * *

test system: FMDV serotype A (NP05); assay: microbe, parasite or virus in culture; format: cell-based, Foot-and-mouth disease virus; details: read-out: Penetration EC50
measured parameter: pEC50
Entry type: numeric. Quantity: pEC50, the -log10 of concentration in molar units.

Please look up its pEC50: CCOC(=O)/C=C/[C@H](C[C@@H]1CCNC1=O)NC(=O)[C@@H](CC(=O)[C@@H](NC(=O)c1cc(C)on1)C(C)C)Cc1ccc(F)cc1 [RPV, Rupintrivir]
5.69

* * *

tested on: FMDV serotype A (NP05); experiment: microbe, parasite or virus in culture; assay type: cell-based; conditions: Foot-and-mouth disease virus, BHK-21, read-out: Prophylactic EC50
measured parameter: EC50

CC[C@H]1CN2CCc3cc(OC)c(OC)cc3[C@@H]2C[C@@H]1C[C@H]1NCCc2cc(O)c(OC)cc21    230 nM

From here, focus on the item given below.
Please look up its EC50: CC[C@H]1CN2CCc3cc(OC)c(OC)cc3[C@@H]2C[C@@H]1C[C@H]1NCCc2cc(OC)c(OC)cc21 [EMT, Emetine, reference compound]
640 nM

* * *

system: FMDV serotype A (NP05); assay: microbe, parasite or virus in culture; type: cell-based, Foot-and-mouth disease virus; conditions: read-out: Pre-viral entry EC50
measured parameter: EC50 (µM)
Give the quantity in µM, number only.

Please look up its EC50: CCOC(=O)/C=C/[C@H](C[C@@H]1CCNC1=O)NC(=O)[C@@H](CC(=O)[C@@H](NC(=O)c1cc(C)on1)C(C)C)Cc1ccc(F)cc1
10.5
